Test: Saturation solubility of Aildenafil salts in water at room temperature
Assay type: physicochemical
Conditions: thermodynamic from solid, room temperature, read-out: Saturated Solubility in water at room temperature
metric: solubility

Which solubility reading was recorded for the compound CCCc1nn(C)c2c(=O)[nH]c(-c3cc(S(=O)(=O)N4C[C@@H](C)N[C@@H](C)C4)ccc3OCC)nc12.O=C(O)C(O)C(O)C(=O)O [Aildenafil L-tartrate] ? ~50 mg/mL

====

Assay: pH measurement of Aildenafil salts dissolved in water
Format: physicochemical
Conditions: 10 mg/ml in water
metric: 10 mg/ml pH value

compound="CCCc1nn(C)c2c(=O)[nH]c(-c3cc(S(=O)(=O)N4C[C@@H](C)N[C@@H](C)C4)ccc3OCC)nc12.O=C(O)C(O)C(O)C(=O)O [Aildenafil L-tartrate]" metric="10 mg/ml pH value" result=3.56
compound="CCCc1nn(C)c2c(=O)[nH]c(-c3cc(S(=O)(=O)N4C[C@@H](C)N[C@@H](C)C4)ccc3OCC)nc12 [Aildenafil phosphate]" metric="10 mg/ml pH value" result=5.38

// switching to the query compound
Which 10 mg/ml pH value reading was recorded for the compound CCCc1nn(C)c2c(=O)[nH]c(-c3cc(S(=O)(=O)N4C[C@@H](C)N[C@@H](C)C4)ccc3OCC)nc12 [Aildenafil DL-tartrate] ? 3.57
